B1: ALDH8A1 (parent)
chain: RVAKKLQSGLVWTNCWLIRELNLP

variants of: B1; assay: protein stability index of a GFP-peptide fusion (GPS, HEK-293T) (PSI 1-6); higher = more stable; details: c terminus: a fixed tail appended;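 further: lentivirally expressed fusions sorted by FACS into six bins by GFP to DsRed ratio, PSI derived from sequencing read proportions per bin multiplied by bin number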
We use 3 as the dividing line for protein stability index: on or above the line is Met, below is Not met.

The following variants have reported results that may help.
C15I	Not met
L10D	Not met
V2P	Not met
W12P	Met
A3Y	Not met

Problem: API: above_or_equal(metric=protein stability index, cutoff=3) for item Q7N
Solution: Not met

Problem: Hi team, for W16G , is the recorded protein stability index at or above 3?
Solution: Not met

Problem: Tell me whether protein stability index is at least 3 here: L17D
Solution: Met
